Every entry's value here was drawn from PubChem BioAssay (EPA / NIEHS).

# method summary: ATG_PPRE_CIS: Attagene CIS-FACTORIAL HepG2 Assay for human Peroxisome Proliferator-activated Response Element (PPRE) (AID 2282958)
# particulars: HepG2 PPRE cis-element reporter, Attagene transcription factor profiling; actives raise or lower the signal
# Experimental: ATG_CIS is a cell-based, multiplexed-readout assay that uses HepG2, a human liver cell line, with measurements taken at 24 hours after chemical dosing in a 24-well plate.ATG_PPRE_CIS is one of 52 assay component(s) measured or calculated from the ATG_CIS assay. […] This assay endpoint, ATG_PPRE_CIS, was analyzed with bidirectional fitting relative to DMSO as the negative control and baseline of activity. […]
Active and inactive are the calls of the source. Rule for the calls: active = hit-call score of the fitted dose curve at least 0.9, where 1 is the maximum; inactive = score below 0.9.
Bench note: report the call from active, inactive

Test call, this molecule: CC1C2CC(CC2C2CCCC(O)C2)C1(C)C (stereo not drawn)
inactive

Test call, this molecule: C[C@H]1C[C@@H](O)CC(C)(C)C1
inactive

Test call, this molecule: CCOC(=O)CC(C)O (stereo not drawn)
inactive

Next:
Test call, this molecule: CCCCCC(C=O)=Cc1ccccc1
active

Test call, this molecule: NCCNc1cccc2ccccc12
active
